Taken from ChEMBL document CHEMBL1125705.

# collection of IC50 values tested on Substance-P receptor (Rattus norvegicus)
# Sequence (P14600 whole entry): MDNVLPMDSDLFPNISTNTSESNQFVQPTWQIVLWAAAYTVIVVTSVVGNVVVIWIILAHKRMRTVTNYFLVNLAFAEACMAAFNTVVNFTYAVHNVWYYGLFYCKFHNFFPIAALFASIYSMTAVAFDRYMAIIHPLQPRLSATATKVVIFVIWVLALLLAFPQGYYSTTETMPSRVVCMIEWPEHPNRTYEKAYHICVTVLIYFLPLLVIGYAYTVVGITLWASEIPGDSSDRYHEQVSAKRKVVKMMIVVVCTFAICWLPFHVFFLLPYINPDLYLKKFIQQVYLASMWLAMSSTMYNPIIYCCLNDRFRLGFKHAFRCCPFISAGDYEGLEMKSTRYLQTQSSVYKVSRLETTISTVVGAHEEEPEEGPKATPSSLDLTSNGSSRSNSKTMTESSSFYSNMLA
Unit µM implied. Number only.

CCn1c(/C=C/C=C2\Sc3ccccc3N2C)[n+](CC)c2nc3ccccc3nc21 0.7
CCn1c(/C=C/C=C2/N(CC(=O)N(C)C)c3ccccc3C2(C)C)[n+](CC)c2nc3ccccc3nc21 2.6
CCN1/C(=C/C=C/c2n(CC)c3nc4ccccc4nc3[n+]2CC)C(C)(C)c2ccccc21 0.39

Consider now this further compound.
Which IC50 value is on record for CCn1c(/C=C/C=C2/N(C)c3ccccc3C2(C)C)[n+](CCCC(=O)O)c2nc3ccccc3nc21 ?
1.4

---

biological target: Substance-K receptor (Rattus norvegicus)
Sequence (P16610 whole entry): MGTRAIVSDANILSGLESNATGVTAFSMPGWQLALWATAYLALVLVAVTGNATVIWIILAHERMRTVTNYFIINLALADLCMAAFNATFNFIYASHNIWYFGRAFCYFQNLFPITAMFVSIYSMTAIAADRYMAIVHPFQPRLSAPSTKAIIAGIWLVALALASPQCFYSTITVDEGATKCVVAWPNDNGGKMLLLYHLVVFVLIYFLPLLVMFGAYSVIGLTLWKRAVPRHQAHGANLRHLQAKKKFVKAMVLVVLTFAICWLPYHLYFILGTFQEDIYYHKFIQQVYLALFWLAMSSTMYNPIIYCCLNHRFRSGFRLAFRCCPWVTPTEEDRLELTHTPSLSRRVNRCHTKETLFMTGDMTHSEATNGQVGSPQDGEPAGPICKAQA
RECORDED_METRIC: pIC50
Interpret pIC50 as the negative base-10 log of the concentration measured in mol/L.

Dear colleague, I am looking for the recorded pIC50 of the following molecule: CCn1c(/C=C/C=C2\N(C)c3ccccc3C2(C)C)[n+](CC)c2nc3ccccc3nc21
5.77
